Target: T1, Human CD137 ECD (human)
T1 construct: also called 4-1BB
T1 sequence (chain, as listed by the source limits assumed): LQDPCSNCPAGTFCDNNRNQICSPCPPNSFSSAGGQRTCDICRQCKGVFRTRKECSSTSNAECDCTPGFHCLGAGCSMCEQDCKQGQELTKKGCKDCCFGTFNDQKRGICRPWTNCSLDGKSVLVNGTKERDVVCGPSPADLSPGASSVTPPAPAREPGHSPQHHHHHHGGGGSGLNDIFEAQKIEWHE
Assay: single mutant vs template dBBDu183H
Catalogue of binders with associated fold change of affinity
READOUT LABEL: fold change of affinity (fold)

| BINDER | ASSAY VALUE |
| --- | --- |
| H183/L072 VH K52bQ (antibody, name in Kabat numbering, V domains shown) VH: QVQLVESGGGLVQPGRSLRLSCAASGFTFSNAWMHWVRQAPGKGLEWVAQIKDQGNAYAAYYAPSVKGRFTISRDDSKNSIYLQMNSLKTEDTAVYYCHYVHYASASTVLPAFGVDAWGQGTTVTVSS VL: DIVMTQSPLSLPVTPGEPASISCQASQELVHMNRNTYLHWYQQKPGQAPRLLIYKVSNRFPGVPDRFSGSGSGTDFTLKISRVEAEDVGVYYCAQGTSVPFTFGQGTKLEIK | 0.8 |
| H183/L072 VH A56P (antibody, name in Kabat numbering, V domains shown) VH: QVQLVESGGGLVQPGRSLRLSCAASGFTFSNAWMHWVRQAPGKGLEWVAQIKDKGNAYPAYYAPSVKGRFTISRDDSKNSIYLQMNSLKTEDTAVYYCHYVHYASASTVLPAFGVDAWGQGTTVTVSS VL: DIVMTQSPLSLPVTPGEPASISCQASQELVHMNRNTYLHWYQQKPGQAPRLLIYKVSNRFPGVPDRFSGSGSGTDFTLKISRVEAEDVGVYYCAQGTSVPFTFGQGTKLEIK | 0.2 |
| H183/L072 VH P100eM (antibody, name in Kabat numbering, V domains shown) VH: QVQLVESGGGLVQPGRSLRLSCAASGFTFSNAWMHWVRQAPGKGLEWVAQIKDKGNAYAAYYAPSVKGRFTISRDDSKNSIYLQMNSLKTEDTAVYYCHYVHYASASTVLMAFGVDAWGQGTTVTVSS VL: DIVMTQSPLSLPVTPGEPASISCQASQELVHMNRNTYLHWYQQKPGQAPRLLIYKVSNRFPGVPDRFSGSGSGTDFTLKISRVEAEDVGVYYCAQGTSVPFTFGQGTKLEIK | 0 |
